- TARGET: T1, ^CDD_(ElaJ)
- T1 chain: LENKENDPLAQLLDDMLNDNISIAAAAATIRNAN
- TEST: FRET or BRET; KD-FRET: sensitized-emission (three-channel) FRET microscopy of single living E. coli BW25993 cells (UvrA/UvrB: uvrA uvrB double deletion strain), donor eGFPd fusion from pFF838, acceptor mRFP fusion from pBBR6k, M9 medium, 37 °C; corrections to step 6; FRET efficiency against binned acceptor concentration fitted to a quadratic binding equation
- CONDITION DETAILS: partners not purified
Ends that are not written are not given here.
QUANTITY NAME: Kd (nM)
# unit: nM | format: bare number

## Input For the binder shown here, MKDYIEHILEEIKHNRLSKQEGLEQIRQFRSKGNV (domain or fragment, not fully specified) [^NDD_(ElaK)] , give the reported Kd.
## Output 1180
